Origin of measurements: patent US20260116991A1

Target: T1, polypeptide GC3pep (human)
T1 construct: also called membrane proximal polypeptide GC3pep
T1 peptide: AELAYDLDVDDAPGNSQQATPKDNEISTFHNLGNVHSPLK
Assay: ELISA, GC3pep coated, antibody 1 nM;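 note: bound antibody detected with an HRP-conjugated secondary antibody and TMB substrate, reaction stopped with HCl, after 2 h binding at 37 °C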
readout_kind: OD450 nm (OD450 nm)
Just the number in OD450 nm, nothing appended.

F2.169.2 (antibody, human IgG1, kappa, V domains shown, human-murine chimeric antibody) VH: EVQLVETGGGLVQPKGSLKLSCAASGFSFNTNAMNWVRQAPGKGLEWVARIRSKSNNYATYYADSVKDRFTISRDDSQSMLYLQMNNLKTEDTAMYYCVRDGYYVLFAYWGQGTLVTVSA VL: DVLMTQTPLSLPVSLGDQASISCRFSQSIVNSNGNTYLEWFLQKPGQSPKLLIYKVSNRFSGVPDRFSGSGSGTDFTLKISRVEAEDLGVYYCFQGSHVPFTFGTGTKLEIKR    2.36
F4.13.7 (antibody, human IgG1, kappa, V domains shown, human-murine chimeric antibody) VH: QVQLQQPGAELVKPGASVKLSCKASGYTFTNNWVHWVKQRPGQGLEWTGMIHPDSGSTIYNEKFQSKATLTVDKSSSTAYMQLSSLTSEDSAVYYCARGYYDSSSYYAMDYWGQGTSVTVSS VL: NIQMTQTTSSLSASLGDRVTISCSASQGIFNYLNWYQQKPDGTVKLLIYYTSSLHSGVPSRFSGSGSGTDYSLTISNLEPEDIATYYCQQYSKLPWTFGGGTKLEIKR    0.03

Measured OD450 nm of F2.23.8 (antibody, human IgG1, kappa, V domains shown, human-murine chimeric antibody) VH: QVQLQQSGAELVRPGASVKLSCKASGYTFTDYEMHWVKQTPVHGLEWFGAIDPETGGTAYNQKFRAKATLTADKSSSTAYMELRSLTSEDSAVYYCTRFYSFAYWGQGTLVTVSA VL: DVVMTQTPLSLPVSLGDQASISCRSSQSLVHSNGNTYLQWYLQKPGQSPKLLIYKVSNRFSGVPDRFSGSGSGTDFTLKITRVEAEDLGVYFCSQSTHVPYTFGSGTKLEIKR : 2.12
